- measurement-description: Conductometry: molar conductivity of silver complexes in DMSO
- Type: physicochemical
- condition-description: 1.0 mM in DMSO, 1 h after dissolution, calculated as monocarbene (NHC)AgX
Values of Molar conductivity ΛM greater than or equal to 4 S cm^2 mol^–^1 map to Yes; values below map to No.

# compound, answer-label
data = [
    ("COCCn1[c]([Ag][Cl])[n+](Cc2ccccn2)c2ccccc21 [4a]", "No"),
    ("CC(C)n1[c](=[Ag][I])n(Cc2ccccn2)c2ccccc21 [3c]", "Yes"),
    ("Cn1[c](=[Ag][I])n(Cc2ccccn2)c2ccccc21 [1c]", "Yes"),
    ("CCn1[c](=[Ag][Br])n(Cc2ccccn2)c2ccccc21 [2b]", "Yes"),
    ("[Cl][Ag][c]1n(Cc2ccccn2)c2ccccc2[n+]1Cc1ccccn1 [6a]", "No"),
]

Query :: Say whether [Cl][Ag][c]1n(Cc2ccccc2)c2ccccc2[n+]1Cc1ccccn1 [5a] shows Molar conductivity ΛM of 4 S cm^2 mol^–^1 or more.
Result :: Yes

Query :: Decide: Molar conductivity ΛM of CC(C)n1[c](=[Ag][Br])n(Cc2ccccn2)c2ccccc21 [3b] >= 4 S cm^2 mol^–^1?
Result :: Yes

Query :: Can O=[N+]([O-])[O-].[Ag+] [AgNO3, Silver nitrate, reference compound] be said to have Molar conductivity ΛM at or above 4 S cm^2 mol^–^1?
Result :: Yes

----------
Overview of reported MIC MRSA across a group of compounds:
- Test system: S. aureus MRSA (DSM 11822, ICB 25701)
- measurement-description: microbe, parasite or virus in culture
- Format: cell-based, methicillin resistant S. aureus
- condition-description: mean ± standard error, n = 3, TSY, 22 h
// note: answer is a bare numeric in µM

# chemical-smiles, units, numeric-readout
records = [
    ("CCn1[c](=[Ag][Br])n(Cc2ccccn2)c2ccccc21", "µM", 151),
    ("[Cl][Ag][c]1n(Cc2ccccc2)c2ccccc2[n+]1Cc1ccccn1", "µM", 145),
    ("COCCn1[c]([Ag][Cl])[n+](Cc2ccccn2)c2ccccc21", "µM", 156),
]

get_value(item= `CC(C)n1[c](=[Ag][Br])n(Cc2ccccn2)c2ccccc21` , readout=MIC MRSA) returns 146

Per the record, `CC(C)n1[c](=[Ag][Cl])n(Cc2ccccn2)c2ccccc21` has MIC MRSA of 162

// field: MIC MRSA; key: `[Br][Ag][c]1n(Cc2ccccn2)c2ccccc2[n+]1Cc1ccccn1` ; value = 132

----------
- Tested on: S. aureus MRSA (DSM 11822, ICB 25701)
- measurement-description: microbe, parasite or virus in culture
- Assay type: cell-based, methicillin resistant S. aureus
- condition-description: mean ± standard error, n = 3, TSY, 22 h
Documented MIC MRSA across a set of compounds
Output spec: scalar in µM, unitless text.

// solved cases for MIC MRSA follow
# compound, MIC MRSA / µM
rows = [
    ("Cn1[c](=[Ag][Br])n(Cc2ccccn2)c2ccccc21", 156),
    ("[Br][Ag]=[c]1n(Cc2ccccc2)c2ccccc2n1Cc1ccccn1", 131),
    ("[Cl][Ag][c]1n(Cc2ccccn2)c2ccccc2[n+]1Cc1ccccn1", 144),
]

Quick note, MIC MRSA for `COCCn1[c](=[Ag][Br])n(Cc2ccccn2)c2ccccc21` landed at 141

Lookup result for `CCn1[c](=[Ag][Cl])n(Cc2ccccn2)c2ccccc21` ; measured MIC MRSA: 168

Entry under test: O=[N+]([O-])[O-].[Ag+] [AgNO3, Silver nitrate, reference compound] . Its MIC MRSA was 188

Entry `Cn1[c]([Ag][Cl])[n+](Cc2ccccn2)c2ccccc21` — recorded MIC MRSA = 175

----------
- Tested on: P. aeruginosa PA7 (DSM 24068)
- measurement-description: microbe, parasite or virus in culture
- Type: cell-based, Pseudomonas aeruginosa
- condition-description: mean ± standard error, n = 3, MHB; read-out: EC50 P. aeruginosa
Label met when EC50 is strictly below 10 µM; otherwise label not met.

# compound, answer-label
measured = [
    ("CC(C)n1[c](=[Ag][Br])n(Cc2ccccn2)c2ccccc21 [3b]", "not met"),
    ("COCCn1[c](=[Ag][Br])n(Cc2ccccn2)c2ccccc21 [4b]", "met"),
]

Query :: Take the compound CCn1[c](=[Ag][I])n(Cc2ccccn2)c2ccccc21 [2c] and say whether its EC50 is less than 10 µM.
Result :: not met

Query :: Would you kindly verify if EC50 of [Cl][Ag][c]1n(Cc2ccccn2)c2ccccc2[n+]1Cc1ccccn1 [6a] is strictly less than 10 µM?
Result :: not met

Query :: I wonder whether CCn1[c](=[Ag][Cl])n(Cc2ccccn2)c2ccccc21 [2a] has EC50 below 10 µM. Can you tell?
Result :: met

Query :: For this compound, is EC50 lower than 10 µM? CC(C)n1[c](=[Ag][I])n(Cc2ccccn2)c2ccccc21 [3c]
Result :: met

Query :: Given [Br][Ag]=[c]1n(Cc2ccccc2)c2ccccc2n1Cc1ccccn1 [5b] , is recorded EC50 strictly lower than 10 µM?
Result :: not met

Query :: In plain terms, does Cn1[c](=[Ag][Br])n(Cc2ccccn2)c2ccccc21 [1b] come in under 10 µM for EC50?
Result :: not met

Query :: Confirm or reject: EC50 of COCCn1[c](=[Ag][I])n(Cc2ccccn2)c2ccccc21 [4c] lies strictly below 10 µM
Result :: met

Query :: EC50 strictly < 10 µM for this compound? [Cl][Ag][c]1n(Cc2ccccc2)c2ccccc2[n+]1Cc1ccccn1 [5a]
Result :: not met

Query :: Does this compound meet the criterion EC50 < 10 µM? O=[N+]([O-])[O-].[Ag+] [AgNO3, Silver nitrate, reference compound]
Result :: met

Query :: EC50 under 10 µM? Item: COCCn1[c]([Ag][Cl])[n+](Cc2ccccn2)c2ccccc21 [4a]
Result :: met

Query :: Take the compound CC(C)n1[c](=[Ag][Cl])n(Cc2ccccn2)c2ccccc21 [3a] and say whether its EC50 is less than 10 µM.
Result :: not met

----------
- Test system: K. pneumoniae (DSM 11678, ATCC33495)
- measurement-description: Broth microdilution antibacterial assay
- Format: cell-based, Klebsiella pneumoniae
- condition-description: n = 3, MHB, 22 h
measurement-name: MIC K. pneumoniae (value in brackets) (µg/mL)
Please give a number only; it is taken to be in µg/mL.

# chemical-smiles, numeric-readout
measured = [
    ("[Cl][Ag][c]1n(Cc2ccccc2)c2ccccc2[n+]1Cc1ccccn1", 8),
    ("CCn1[c](=[Ag][Br])n(Cc2ccccn2)c2ccccc21", 7),
    ("Cn1[c](=[Ag][Br])n(Cc2ccccn2)c2ccccc21", 7),
    ("COCCn1[c](=[Ag][I])n(Cc2ccccn2)c2ccccc21", 2),
    ("[Cl][Ag][c]1n(Cc2ccccn2)c2ccccc2[n+]1Cc1ccccn1", 4),
    ("[Br][Ag][c]1n(Cc2ccccn2)c2ccccc2[n+]1Cc1ccccn1", 7),
]

Entry under test: `CCn1[c](=[Ag][I])n(Cc2ccccn2)c2ccccc21` . Its MIC K. pneumoniae (value in brackets) was 5

----------
# collection of pIC50 values tested on glutathione reductase (GR) from baker's yeast (Saccharomyces cerevisiae, UniProt P41921)
# Sequence (P41921 17-483 limits assumed): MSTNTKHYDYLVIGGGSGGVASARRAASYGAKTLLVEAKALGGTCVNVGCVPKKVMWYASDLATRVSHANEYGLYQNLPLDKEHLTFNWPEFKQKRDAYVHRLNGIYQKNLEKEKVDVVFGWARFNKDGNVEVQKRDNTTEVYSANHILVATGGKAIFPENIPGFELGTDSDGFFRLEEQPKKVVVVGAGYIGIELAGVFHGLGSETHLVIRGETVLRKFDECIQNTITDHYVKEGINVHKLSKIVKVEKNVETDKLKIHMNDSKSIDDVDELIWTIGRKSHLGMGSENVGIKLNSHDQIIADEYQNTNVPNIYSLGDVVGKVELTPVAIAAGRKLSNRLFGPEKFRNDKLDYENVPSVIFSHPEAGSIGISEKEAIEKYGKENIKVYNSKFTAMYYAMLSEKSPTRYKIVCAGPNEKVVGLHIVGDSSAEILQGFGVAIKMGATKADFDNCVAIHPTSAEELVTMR
# pIC50 is unitless: minus log10 of the molar concentration; print number only

Worked examples follow.
# compound, pIC50
data = [
    ("O=[N+]([O-])[O-].[Ag+] [AgNO3, Silver nitrate, reference compound]", 7.48),
    ("CC(C)n1[c](=[Ag][I])n(Cc2ccccn2)c2ccccc21", 7.31),
    ("CC(C)n1[c](=[Ag][Br])n(Cc2ccccn2)c2ccccc21", 7.39),
]

Let me check: `CC(C)n1[c](=[Ag][Cl])n(Cc2ccccn2)c2ccccc21` , system glutathione reductase (GR) from baker's yeast (Saccharomyces cerevisiae, UniProt P41921), measured pIC50 is 7.36

----------
- Test system: A. baumannii (DSM 30007, ATCC 19606)
- measurement-description: Broth microdilution antibacterial assay
- Type: cell-based, Acinetobacter baumannii
- condition-description: mean ± standard error, n = 3, MHB; read-out: EC50 A. baumannii
measurement-name: EC50 (nM)
Express it in nM; write the number only.

Example results:
# molecule, units, EC50
records = [
    ("CCn1[c](=[Ag][Cl])n(Cc2ccccn2)c2ccccc21 [2a]", "nM", 2400),
    ("CC(C)n1[c](=[Ag][I])n(Cc2ccccn2)c2ccccc21 [3c]", "nM", 1900),
    ("[Br][Ag][c]1n(Cc2ccccn2)c2ccccc2[n+]1Cc1ccccn1 [6b]", "nM", 470),
    ("[Cl][Ag][c]1n(Cc2ccccn2)c2ccccc2[n+]1Cc1ccccn1 [6a]", "nM", 1600),
    ("CCn1[c](=[Ag][I])n(Cc2ccccn2)c2ccccc21 [2c]", "nM", 2900),
    ("CCn1[c](=[Ag][Br])n(Cc2ccccn2)c2ccccc21 [2b]", "nM", 2200),
]

Known value: A. baumannii (DSM 30007, ATCC 19606) EC50 of the molecule COCCn1[c](=[Ag][I])n(Cc2ccccn2)c2ccccc21 [4c] equals 1900

The molecule Cn1[c](=[Ag][Br])n(Cc2ccccn2)c2ccccc21 [1b] , when measured on A. baumannii (DSM 30007, ATCC 19606), yielded EC50 of 2600

Form field, EC50 with A. baumannii (DSM 30007, ATCC 19606), item CC(C)n1[c](=[Ag][Cl])n(Cc2ccccn2)c2ccccc21 [3a] : 1800

Record Cn1[c](=[Ag][I])n(Cc2ccccn2)c2ccccc21 [1c] / A. baumannii (DSM 30007, ATCC 19606), EC50 recorded as 4100

For the molecule COCCn1[c]([Ag][Cl])[n+](Cc2ccccn2)c2ccccc21 [4a] , the measured EC50 on A. baumannii (DSM 30007, ATCC 19606) was 1900

Log: A. baumannii (DSM 30007, ATCC 19606), molecule COCCn1[c](=[Ag][Br])n(Cc2ccccn2)c2ccccc21 [4b] , EC50 = 2100
